Assay: TOR pathway RPL19A-GFP modulators, concentration series – cell-based, S. cerevisiae, flow cytometry, MLPCN hits, dose response (AID 2740)
Details: S. cerevisiae RPL19A-GFP strain, flow cytometry fluorescence, 3 h; at 33 µM (top of the series)
Mark F for GFP fluorescence, lower = active (kMESF (background-subtracted)) values under 40, and T for everything at or above.

O=C(Nc1cccc(-c2csc(Nc3ccccc3)n2)c1)c1ccccc1 | F

Is the recorded value of GFP fluorescence, lower = active (kMESF (background-subtracted)) equal to or greater than 40 for this molecule? COc1ccccc1-c1nc2s/c(=C\c3cccs3)c(=O)n2n1
F

Try the molecule COc1ccccc1N=Cc1nc(-c2ccccc2)oc1OC(C)=O
T

Do the same for C[n+]1ccc(/C=C/c2c[nH]c3ccccc23)cc1 please
T

Could you do the same for N/C(Cc1ccc(Cl)cc1Cl)=N\OC(=O)c1ccccc1 , please?
F

What do we get for CCCc1ccc(OCC(=O)NNC(=S)NC(=O)c2ccco2)cc1 ?
F

Okay, and C/C(=N\Nc1ncnc2sc(C)c(C)c12)c1ccccn1 ?
F

Input O=C1NC(=O)N(c2ccccc2)C(=O)/C1=C/c1ccc(Sc2ccccc2)o1
F

Follow-up item: Cc1ccc(/C=c2\sc3nc(-c4cccs4)nn3c2=O)o1
T

Please give the result for Cc1cccc2c1NC(=O)/C2=C\C(=O)c1cccs1 too.
F
